Protocol Summary: Blood plasma protein binding, mouse plasma (ultrafiltration)
Assay type: in vitro ADME
Run Parameters: mouse, plasma, 30 min, 37 °C, read-out: Fraction bound to blood plasma proteins (converted)
Residues, ends and D or L forms follow the SMILES beside them. *: point of attachment. DOTA = O=C(O)CN1CCN(CC(=O)O)CCN(CC(=O)*)CCN(CC(=O)O)CC1; Ahx = NCCCCCC(=O)O
Measured Metric: fraction unbound
Keep the answer to the number alone.

fraction unbound recorded for this compound, CC[C@H](C)[C@H](NC(=O)[C@H](CCC(N)=O)NC(=O)[C@@H]1CCCN1C(=O)[C@H](CCCNC(=N)N)NC(=O)[C@@H]1CCCN1C(=O)[C@H](Cc1c[nH]c2ccccc12)NC(=O)[C@H](CCC(=O)O)NC(=O)CCCCCNC(=O)CCCCCNC(=O)CN1CCN(CC(=O)O)CCN(CC(=O)O)CCN(CC(=O)O)CC1)C(=O)N1CCC[C@H]1C(=O)N1CCC[C@H]1C(=O)O [[^67Ga]Ga-DOTA-BPP9a, metal not drawn] ({DOTA-Ahx-Ahx}-EWPRPQIPP-OH) , is 0.47

* * *

Protocol Summary: Blood plasma protein binding, human plasma (ultrafiltration)
Type: in vitro ADME
Run Parameters: human, plasma, 30 min, 37 °C, read-out: Fraction bound to blood plasma proteins
Residues, ends and D or L forms follow the SMILES beside them. *: point of attachment. DOTA = O=C(O)CN1CCN(CC(=O)O)CCN(CC(=O)*)CCN(CC(=O)O)CC1; Ahx = NCCCCCC(=O)O
Measured Metric: fraction unbound
Keep the answer to the number alone.

fraction unbound recorded for this compound, CC[C@H](C)[C@H](NC(=O)[C@H](CCC(N)=O)NC(=O)[C@@H]1CCCN1C(=O)[C@H](CCCNC(=N)N)NC(=O)[C@@H]1CCCN1C(=O)[C@H](Cc1c[nH]c2ccccc12)NC(=O)[C@H](CCC(=O)O)NC(=O)CCCCCNC(=O)CCCCCNC(=O)CN1CCN(CC(=O)O)CCN(CC(=O)O)CCN(CC(=O)O)CC1)C(=O)N1CCC[C@H]1C(=O)N1CCC[C@H]1C(=O)O [[^67Ga]Ga-DOTA-BPP9a, metal not drawn] ({DOTA-Ahx-Ahx}-EWPRPQIPP-OH) , is 0.5

* * *

Protocol Summary: Biodistribution in HEK-ACE2/HEK-ACE xenografted mice
Format: in vivo, mouse
Run Parameters: female, CD1/nude, mouse, salivary glands, iv, 0.5 nmol, total radioactivity, 3 h after i.v. injection, decay-corrected, n = 3; read-out: Biodistribution: salivary glands
Residues, ends and D or L forms follow the SMILES beside them. *: point of attachment. DOTA = O=C(O)CN1CCN(CC(=O)O)CCN(CC(=O)*)CCN(CC(=O)O)CC1; Ahx = NCCCCCC(=O)O
Measured Metric: tissue uptake at 3 h (%ID/g)
Give just the number in %ID/g; leave the unit off.

tissue uptake at 3 h recorded for this compound, CC[C@H](C)[C@H](NC(=O)[C@H](CCC(N)=O)NC(=O)[C@@H]1CCCN1C(=O)[C@H](CCCNC(=N)N)NC(=O)[C@@H]1CCCN1C(=O)[C@H](Cc1c[nH]c2ccccc12)NC(=O)[C@H](CCC(=O)O)NC(=O)CCCCCNC(=O)CCCCCNC(=O)CN1CCN(CC(=O)O)CCN(CC(=O)O)CCN(CC(=O)O)CC1)C(=O)N1CCC[C@H]1C(=O)N1CCC[C@H]1C(=O)O [[^67Ga]Ga-DOTA-BPP9a, metal not drawn] ({DOTA-Ahx-Ahx}-EWPRPQIPP-OH) , is 0.04
